biological target: T1, human CD47 (human, UniProt Q08722 19-139); experiment: SPR as in Example 1
T1 construct: extracellular domain; also called CD47 ECD
T1 sequence (Q08722 19-139 limits assumed): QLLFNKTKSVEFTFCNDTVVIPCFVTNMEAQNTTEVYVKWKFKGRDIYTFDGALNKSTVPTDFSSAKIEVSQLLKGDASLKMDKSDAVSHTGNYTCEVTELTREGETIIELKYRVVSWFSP
RESULT TYPE: Kd (nM)
Give bare numbers, in nM.

Take a look at these entries with their results.
Fill in reported Kd for this entry: SIRP-α D1 variant fused to Fc variant, SEQ ID NO: 99 (Fc fusion) EEELQVIQPDKSVLVAAGETATLRCTATSLFPVGPIQWFRGAGPGRELIYNQRQGPFPRVTTVSDLTKRNNMDFSIRIGAITPADAGTYYCVKFRKGSPDDVEFKSGAGTELSVRAKPSDKTHTCPPCPAPEAAGAPSVFLFPPKPKDTLMISRTPEVTCVVVDVSHEDPEVKFNWYVDGVEVHNAKTKPREEQYASTYRVVSVLTVLHQDWLNGKEYKCKVSNKALPAPIEKTISKAKGQPREPQVYTLPPSREEMTKNQVSLTCLVKGFYPSDIAVEWESNGQPENNYKTTPPVLDSDGSFFLYSKLTVDKSRWQQGNVFSCSVMHEALHNHYTQKSLSLSPGK
0.895

Fill in reported Kd for this entry: SIRP-α D1 variant fused to Fc variant, SEQ ID NO: 108 (Fc fusion) EEELQVIQPDKSVLVAAGETATLRCTATSLFPVGPIQWFRGAGPGRELIYNQRQGPFPRVTTVSDLTKRNNMDFSIRIGAITPADAGTYYCVKFRKGSPDDVEFKSGAGTELSVRAKPSVECPPCPAPPVAGPSVFLFPPKPKDTLMISRTPEVTCVVVDVSHEDPEVQFNWYVDGVEVHNAKTKPREEQFASTFRVVSVLTVVHQDWLNGKEYKCKVSNKGLPSSIEKTISKTKGQPREPQVYTLPPSREEMTKNQVSLTCLVKGFYPSDIAVEWESNGQPENNYKTTPPMLDSDGSFFLYSKLTVDKSRWQQGNVFSCSVMHEALHNHYTQKSLSLSPGK
0.478

Next binder, please.
Fill in reported Kd for this entry: SIRP-α D1 variant fused to Fc variant, SEQ ID NO: 115 (Fc fusion) EEELQVIQPDKSVLVAAGETATLRCTATSLFPVGPIQWFRGAGPGRELIYNQRQGPFPRVTTVSDLTKRNNMDFSIRIGNITPADAGTYYCVKFRKGSPDDVEFKSGAGTELSVRAKPSERKSSVECPPCPAPPVAGPSVFLFPPKPKDTLMISRTPEVTCVVVDVSHEDPEVQFNWYVDGVEVHNAKTKPREEQFASTFRVVSVLTVVHQDWLNGKEYKCKVSNKGLPSSIEKTISKTKGQPREPQVYTLPPSREEMTKNQVSLTCLVKGFYPSDIAVEWESNGQPENNYKTTPPMLDSDGSFFLYSKLTVDKSRWQQGNVFSCSVMHEALHNHYTQKSLSLSPGK
0.498
